target_of_assay: CYP 2C19 (Homo sapiens, UniProt P33261)
Construct: pooled human liver microsomes (Corning, Xenotech, or other qualified vendors; pooled from multiple donors); tissue Corning, Xenotech, or other qualified vendors; host or cells: pooled human liver microsomes
Sequence (P33261 whole entry): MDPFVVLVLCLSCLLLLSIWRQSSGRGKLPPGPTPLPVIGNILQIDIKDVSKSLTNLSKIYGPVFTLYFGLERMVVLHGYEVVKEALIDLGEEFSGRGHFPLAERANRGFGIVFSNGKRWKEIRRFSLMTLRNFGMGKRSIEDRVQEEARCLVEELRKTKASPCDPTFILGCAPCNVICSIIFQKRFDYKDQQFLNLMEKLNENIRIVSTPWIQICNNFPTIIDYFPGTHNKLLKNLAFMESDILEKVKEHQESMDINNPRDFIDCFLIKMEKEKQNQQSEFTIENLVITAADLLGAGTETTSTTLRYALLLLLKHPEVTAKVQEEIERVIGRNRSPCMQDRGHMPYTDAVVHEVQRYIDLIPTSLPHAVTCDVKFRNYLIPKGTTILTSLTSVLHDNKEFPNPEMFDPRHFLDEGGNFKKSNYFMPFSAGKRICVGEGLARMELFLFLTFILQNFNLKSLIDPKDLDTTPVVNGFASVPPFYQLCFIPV
assay_details: microsomal CYP inhibition, 2C19
Assay type: in vitro ADME
condition_notes: human liver microsomes 0.2 mg/ml, substrate S-Mephenytoin
reported_endpoint: IC50 (µM)
Express your answer in µM, writing the number without its unit.

Query block: Any idea what IC50 was measured for COCC[S@@+]([O-])c1sc2nc(-c3cnc4nn(C)nc4c3)cc(C(C)(C)C)c2c1N [Compound 29] ?
Result block: 1

----------
target_of_assay: recombinant 15-PGDH (Homo sapiens, UniProt P15428)
Sequence (P15428 whole entry): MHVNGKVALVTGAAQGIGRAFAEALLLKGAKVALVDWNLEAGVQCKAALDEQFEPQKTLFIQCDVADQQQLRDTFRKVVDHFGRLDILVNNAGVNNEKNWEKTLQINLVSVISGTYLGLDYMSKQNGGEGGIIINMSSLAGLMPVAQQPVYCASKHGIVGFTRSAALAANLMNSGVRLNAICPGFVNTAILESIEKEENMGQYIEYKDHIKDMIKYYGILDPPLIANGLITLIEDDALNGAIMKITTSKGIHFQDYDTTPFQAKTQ
assay_details: inhibition of enzymatic activity of recombinant 15-PGDH in vitro
condition_notes: recombinant human 15-PGDH
Text: The Recombinant 15-PGDH is human unless otherwise specified.
pIC50: −log10 of the molar value.
reported_endpoint: pIC50

CNc1ncc(-c2cc(C(C)C)c3c(N)c([S+]([O-])CCOC)sc3n2)cn1 (stereo in doubt) [Compound 23]
< 8.00

Query block: Any idea what pIC50 was measured for COCC[S@+]([O-])c1sc2nc(-c3cnc(N)nc3)cc(C(C)C)c2c1N (stereo in doubt) [Compound 19] ?
Result block: < 8.00

----------
assay_details: kinetic aqueous solubility in pH 7 citrate buffer
Assay type: physicochemical
condition_notes: kinetic from dmso stock, pH 7 citrate buffer solution, read-out: Kinetic Aq solubility (μM pH 7)
The entries below are paired with their reported solubility kinetic.
Express your answer in µM, writing the number without its unit.

Look over these answered cases.
COCC[S@@+]([O-])c1sc2nc(-c3cc(=O)n(C)cn3)cc(-c3ccccc3)c2c1N [Compound A, reference compound]
64
COCC[S@@+]([O-])c1sc2nc(-c3cnc4nn(C)cc4c3)c(C#N)c(-c3ccccc3)c2c1N
169
COCC[S@@+]([O-])c1sc2nc(-c3cnc4nn(C)nc4c3)cc(C(C)(C)C)c2c1N
188

Could you now consider this next compound?
Query block: Any idea what solubility kinetic was measured for COCC[S+]([O-])c1sc2nc(-c3cnc4nn(C)cc4c3)nc(C(C)C)c2c1N (stereo not shown) ?
Result block: 187

----------
target_of_assay: CYP 1A2 (Homo sapiens)
Construct: pooled human liver microsomes (Corning, Xenotech, or other qualified vendors; pooled from multiple donors); tissue Corning, Xenotech, or other qualified vendors; host or cells: pooled human liver microsomes
Sequence (P05177 1-516): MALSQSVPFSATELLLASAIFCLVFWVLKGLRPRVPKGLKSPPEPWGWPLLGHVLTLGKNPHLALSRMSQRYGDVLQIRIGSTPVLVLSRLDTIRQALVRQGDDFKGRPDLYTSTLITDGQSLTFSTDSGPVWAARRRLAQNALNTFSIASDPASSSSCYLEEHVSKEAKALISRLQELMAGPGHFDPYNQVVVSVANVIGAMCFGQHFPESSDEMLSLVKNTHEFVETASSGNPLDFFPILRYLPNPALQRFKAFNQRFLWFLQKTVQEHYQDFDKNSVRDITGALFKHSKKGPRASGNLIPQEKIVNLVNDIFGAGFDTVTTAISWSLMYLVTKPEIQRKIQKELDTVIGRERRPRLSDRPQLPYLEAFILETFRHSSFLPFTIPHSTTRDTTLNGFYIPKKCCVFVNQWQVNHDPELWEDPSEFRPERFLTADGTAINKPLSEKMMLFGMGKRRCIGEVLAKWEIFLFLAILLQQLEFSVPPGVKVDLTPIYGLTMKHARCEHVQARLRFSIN
assay_details: microsomal CYP inhibition, 1A2
Format: in vitro ADME
condition_notes: human liver microsomes 0.2 mg/ml, substrate Phenacetin
reported_endpoint: IC50

Query block: Any idea what IC50 was measured for `COCC[S@@+]([O-])c1sc2nc(-c3cnc4nn(C)nc4c3)cc(C(C)(C)C)c2c1N` ?
Result block: > 50 µM
